Test system: Bacillus subtilis
Assay: cleaved RNA product abundance (RNA/gDNA barcode ratio) relative to median wild-type variant (ratio to wild type); higher = more accumulation of the downstream cleavage product
Conditions: experiment (reporter, strain, medium): exp 4a: truncated aprE reporter, strain BJT201 with 2% xylose (RNase J1 expressed); cleavage site: cggR-gapA (positions -7 to +36 mutated)
# if value of cleaved RNA product abundance reaches 0.5, tag satisfied; if it stays below, tag not satisfied

>>> assigned_class("ACAGACGAAGGAGCCGCTAAGAAGTTATTAAGGGATGAATAATCCCTCAATATAAATATCTCTCACTTATTTAAA")
"satisfied"
>>> assigned_class("ACAGACGAAGGAGCCGCAAAGAAGTTATTAAGGGATGAATAATCCCTCAATATAATTACCTCTCACTTATTTAAA")
"not satisfied"
>>> assigned_class("ACAGACGAAGGAGCCGCAAAGCAGTTATTAAGGGAAGAATAATCCCTCAATATAAATATCTCTCACTTATTTAAA")
"satisfied"

Request: Is cleaved RNA product abundance at least 0.5? Consider `ACAGACGAAGGAGCCGCAAGGAAGTTATTAATGGATGAATAATCCCTCAATATAAATATCTCTCACTTATTTAAA`
Response: not satisfied

Request: Check the entry `ACAGACGAAGGAGCCGCAAAGAAGTTATTAAGGAATGAATAATCCTTCAATATAAATATCTCTCACTTATTTAAA` : does cleaved RNA product abundance equal or exceed 0.5?
Response: not satisfied

Request: Kindly determine if cleaved RNA product abundance recorded for `ACAGACGAAGGAGCCGCAAAGAAGTTATTAATGGATGAATAATCCCTCCATATAAATATCTCTCACTTATTTAAA` is above or exactly 0.5.
Response: not satisfied

Request: hey, is cleaved RNA product abundance for this one >= 0.5? `ACAGACGAAGGAGCCGCAAAGAAGTTATTAAGGGATGAATAATCCTTCAATATATATATCTCTCACTTATTTAAA`
Response: satisfied

Request: Please tell me: is the sequence `ACAGACGAAGGAGCCGCAAAGAAGTTATTAAGGCATGAATATTCCCTCAATATAAATATCTCTCACTTATTTAAA` at or over 0.5 in terms of cleaved RNA product abundance?
Response: not satisfied

Request: Given the entry `ACAGACGAAGGAGCCGCAAGGAAGTAATTAAGGGATGAATAATCCCTCAATATAAATATCTCTCACTTATTTAAA` , answer whether its cleaved RNA product abundance meets or surpasses 0.5.
Response: not satisfied
